Value source: the supplement of paper PMC8728848

molecular target: Man(a1-2)Man(a1-3)[Man(a1-2)Man(a1-6)]Man(a1-6)[Man(a1-2)Man(a1-2)Man(a1-3)]Man; assay: glycan array binding signal (z-score within array); higher = stronger binding; conditions: glycan notation: IUPAC condensed, linker removed
The sample as a whole holds a higher share of the strongest signals than the screen did.
Below is a list of entries, each paired with its recorded glycan array binding signal (z-score) value.
Form field (numeric): enter value without unit.

Solved cases (3 shown):
binder	glycan array binding signal (z-score)
Intelectin 1 (Homo sapiens), Q8WWA0 (protein) MNQLSFLLFLIATTRGWSTDEANTYFKEWTCSSSPSLPRSCKEIKDECPSAFDGLYFLRTENGVIYQTFCDMTSGGGGWTLVASVHENDMRGKCTVGDRWSSQQGSKAVYPEGDGNWANYNTFGSAEAATSDDYKNPGYYDIQAKDLGIWHVPNKSPMQHWRNSSLLRYRTDTGFLQTLGHNLFGIYQKYPVKYGEGKCWTDNGPVIPVVYDFGDAQKTASYYSPYGQREFTAGFVQFRVFNNERAANALCAGMRVTGCNTEHHCIGGGGYFPEASPQQCGDFSGFDWSGYGTHVGYSSSREITEAAVLLFYR	-0.313
DC-SIGN (Canis lupus), XP_853402 (protein) AGLCRPCPWKWELFQESCYFFSQTQNTWKESISACQNLRAQLVIINSTEEQKFLKSWNTRNNQRTWIGLSDHHNEGSWKWVDNTPLQLSFWKEGEPNNHGDEDCVELYSDGWNDNRCSTENFWICKKPSSPCPGPGLNDIFEAQKIEWHE	7.69
LCA (Lens culinaris), P02870 (protein) MASLQTQMISFYLIFLSILLTTIFFFKVNSTETTSFSITKFSPDQKNLIFQGDGYTTKGKLTLTKAVKSTVGRALYSTPIHIWDRDTGNVANFVTSFTFVIDAPSSYNVADEFTFFIAPVDTKPQTGGGYLGVFNSKEYDKTSQTVAVEFDTFYNAAWDPSNKERHIGIDVNSIKSVNTKSWNLQNGERANVVIAFNAATNVLTVTLTYPNSLEEENVTSYTLNEVVPLKDVVPEWVRIGFSATTGAEFAAHEVHSWSFHSELGGTSSSKQAADA	1.19

Name the reported glycan array binding signal (z-score) value associated with the binder CpGal16 (Clavelina picta) (protein) MAKMITNYVGKRIECIMVATDMMSTVFSLASATGDLPFYINFRQRENSIVMNTRVHGKWQYEKSQSSGGMNFYEPFRLVVEVRPSVFKVTVSTMGEEDGITFNLQYSQITIKPDEIVAMHLGYCNLRSELLVTDL -0.232

Subsequent entry: Drgal1 (Danio rerio) (protein) MAGVLIQNMSFKVGQTLTITGVPKPDSTNFAINIGHSPEDIALHMNPRFDAHGDQCTIVCNSFQSGSWCEEHRDDNFPFIQDKEFQIKITFTNEEFLVTLPDGSEIHFPNRQGSEKYKYMYFEGEVRIQGVEIK -0.28
